Please respond with reported pIC50 for every item in the list.
# MEASURED ON: Bromodomain-containing protein 4 (Homo sapiens, UniProt O60885)
# PROTOCOL DESCRIPTION: Inhibition of GST-tagged BRD4-BD1 (49 to 170 residues) (unknown origin) using Histone H4 peptide as substrate incubated for 1.5 hrs by FRET assay
Expect pIC50 as a plain number equal to -log10 of the molar concentration.

(Q) I'm curious: which pIC50 was measured for CCCNS(=O)(=O)c1ccc(C2CC(=O)N(C)C2)cc1 (stereo not given) tested on Bromodomain-containing protein 4 (Homo sapiens, UniProt O60885)?
(A) 3.83

(Q) Report pIC50 for CN1CC(c2ccc(S(=O)(=O)N3CCC[C@@H](C(=O)O)C3)cc2)CC1=O (stereo not given in full) tested on Bromodomain-containing protein 4 (Homo sapiens, UniProt O60885).
(A) 2.77

(Q) Fill in the recorded pIC50 for this compound, with Bromodomain-containing protein 4 (Homo sapiens, UniProt O60885) as test system: CCN(CC)S(=O)(=O)c1ccc(C2CC(=O)N(C)C2)c(-c2ccc(OC)c(OC)c2)c1 (stereo not given)
(A) 4.29

(Q) Which pIC50 is reported with Bromodomain-containing protein 4 (Homo sapiens, UniProt O60885) for this entry: CN1CC(c2ccc(S(=O)(=O)NCCCn3ccnc3)cc2)CC1=O (stereo not given) ?
(A) 2.86

(Q) Return pIC50 measured with Bromodomain-containing protein 4 (Homo sapiens, UniProt O60885) given this compound: CN1CC(c2ccccc2-c2ccccc2)CC1=O (stereo not given)
(A) 3.24

(Q) Observed pIC50 on Bromodomain-containing protein 4 (Homo sapiens, UniProt O60885) for CN1CC(c2ccc(S(=O)(=O)N3CCCCC3)cc2)CC1=O (stereo not given) , please.
(A) 3.84

(Q) Kindly state the measured pIC50 obtained for CN1CC(c2ccc(S(=O)(=O)NC34CC5CC(CC(C5)C3)C4)cc2)CC1=O (stereo not given) with Bromodomain-containing protein 4 (Homo sapiens, UniProt O60885).
(A) 3.82

(Q) # returns recorded pIC50 (system: Bromodomain-containing protein 4 (Homo sapiens, UniProt O60885)) for CN1CC(c2ccc(S(=O)(=O)NCc3ccccc3)cc2)CC1=O (stereo not given)
(A) 3.35

(Q) // lookup pIC50 | system=Bromodomain-containing protein 4 (Homo sapiens, UniProt O60885) | key= CCN(CC)S(=O)(=O)c1ccc(C2CC(=O)N(C)C2)c(-c2ccc(N(C)C)cc2)c1 (stereo not given)
(A) 3.66

(Q) Any idea what pIC50 came out for CCN(CC)S(=O)(=O)c1ccc(C2CC(=O)N(C)C2)c(-c2ccccc2)c1 (stereo not given) on Bromodomain-containing protein 4 (Homo sapiens, UniProt O60885)?
(A) 2.49

(Q) Field: pIC50 (Bromodomain-containing protein 4 (Homo sapiens, UniProt O60885)). Entry: CN1CC(c2ccccc2Br)CC1=O (stereo not given)
(A) 3.49

(Q) API: value(readout= pIC50, system= Bromodomain-containing protein 4 (Homo sapiens, UniProt O60885), query= CCN(CC)S(=O)(=O)c1ccc(C2CC(=O)N(C)C2)c(Br)c1 (stereo not given) )
(A) 3.19

(Q) Please tell me: pIC50 of CCN(CC)S(=O)(=O)c1ccc(C2CC(=O)N(C)C2)c(CCc2ccccc2)c1 (stereo not given) , system Bromodomain-containing protein 4 (Homo sapiens, UniProt O60885)?
(A) 2.35

(Q) Can you look up pIC50 on Bromodomain-containing protein 4 (Homo sapiens, UniProt O60885) for CN1CC(c2ccc(Br)cc2)CC1=O (stereo not given) ?
(A) 3.38

(Q) Identify the measured pIC50 of CN1C[C@H](c2ccccc2)CC1=O for Bromodomain-containing protein 4 (Homo sapiens, UniProt O60885).
(A) 2.84

(Q) Please tell me: pIC50 of CCN(CC)S(=O)(=O)c1ccc([C@H]2CC(=O)N(C)C2)c(-c2ccc(OC)c(OC)c2)c1 , system Bromodomain-containing protein 4 (Homo sapiens, UniProt O60885)?
(A) 4.85

(Q) For the record CN1CC(c2ccc(S(=O)(=O)N3CCOCC3)cc2)CC1=O (stereo not given) , what value of pIC50 is listed for Bromodomain-containing protein 4 (Homo sapiens, UniProt O60885)?
(A) 3.56

(Q) What measured pIC50 is associated with CCNS(=O)(=O)c1ccc(C2CC(=O)N(C)C2)cc1 (stereo not given) on Bromodomain-containing protein 4 (Homo sapiens, UniProt O60885)?
(A) 3.60

(Q) Checklist item: pIC50 tested on Bromodomain-containing protein 4 (Homo sapiens, UniProt O60885), entry CN1CC(c2ccc(-c3ccccc3)cc2)CC1=O (stereo not given) , value?
(A) 3.36

(Q) Lookup: pIC50 / Bromodomain-containing protein 4 (Homo sapiens, UniProt O60885) / CN1CC(c2ccc(S(=O)(=O)N3CCC[C@H](C(=O)O)C3)cc2)CC1=O (stereo not given in full)
(A) 2.71

(Q) Under Bromodomain-containing protein 4 (Homo sapiens, UniProt O60885): pIC50 value of CCN(CC)S(=O)(=O)c1ccc(C2CC(=O)N(C)C2)cc1 (stereo not given) ?
(A) 3.91

(Q) Form entry - test system: Bromodomain-containing protein 4 (Homo sapiens, UniProt O60885); read-out: pIC50; compound: CCN(CC)S(=O)(=O)c1ccc(C2CC(=O)N(C)C2)c(-c2csc3ccccc23)c1 (stereo not given)
(A) 2.57

(Q) Field: pIC50 (Bromodomain-containing protein 4 (Homo sapiens, UniProt O60885)). Entry: CN1CC(c2ccc(S(=O)(=O)N3CCC(c4ccccc4)CC3)cc2)CC1=O (stereo not given)
(A) 3.33

(Q) Write down the reported pIC50 of CN1CC(c2ccc(S(=O)(=O)N3CCCc4ccccc43)cc2)CC1=O (stereo not given) , test system: Bromodomain-containing protein 4 (Homo sapiens, UniProt O60885).
(A) 3.35

(Q) Bromodomain-containing protein 4 (Homo sapiens, UniProt O60885) / pIC50 / CN1CC(c2ccccc2)CC1=O (stereo not given) : value?
(A) 2.94

(Q) I'm curious: which pIC50 was measured for CCN(CC)S(=O)(=O)c1ccc([C@@H]2CC(=O)N(C)C2)c(-c2ccc(OC)c(OC)c2)c1 tested on Bromodomain-containing protein 4 (Homo sapiens, UniProt O60885)?
(A) 4.45

(Q) Please provide the recorded pIC50 for CN1C[C@@H](c2ccccc2)CC1=O , tested on Bromodomain-containing protein 4 (Homo sapiens, UniProt O60885).
(A) 3.20

(Q) # query: pIC50 | item CN1CC(c2ccc(S(=O)(=O)N3C4CCC3CC(=O)C4)cc2)CC1=O (stereo not given) | system: Bromodomain-containing protein 4 (Homo sapiens, UniProt O60885)
(A) 3.65

(Q) Query the reported pIC50 for Bromodomain-containing protein 4 (Homo sapiens, UniProt O60885); item: CC(C)NS(=O)(=O)c1ccc(C2CC(=O)N(C)C2)cc1 (stereo not given)
(A) 3.87
